Measured values drawn from patent US20220195070A1 for this set.

- experimental-system: T1, SG115v1 (human, UniProt P01857 1-328 = IgG part)
- T1 construct: Carries the CH2 modifications of SG115 (Arg235, Arg236, Lys239, EU); Construct used in the ELISA is not described beyond the constant region; also called modified IgG heavy chain constant region SG115v1
- T1 sequence (P01857 other isoform, or with tags, fused parts or gaps limits assumed): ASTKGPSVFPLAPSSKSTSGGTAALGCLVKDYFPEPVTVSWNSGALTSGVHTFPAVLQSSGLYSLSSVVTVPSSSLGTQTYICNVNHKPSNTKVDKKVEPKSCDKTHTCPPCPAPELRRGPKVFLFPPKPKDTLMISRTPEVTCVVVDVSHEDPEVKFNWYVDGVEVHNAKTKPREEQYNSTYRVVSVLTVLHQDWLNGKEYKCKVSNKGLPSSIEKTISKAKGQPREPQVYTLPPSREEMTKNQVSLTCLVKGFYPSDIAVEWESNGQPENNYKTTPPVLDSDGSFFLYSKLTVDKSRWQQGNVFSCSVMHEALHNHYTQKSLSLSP
- measurement-notes: ELISA, OD405 against dose (ng/mL, log axis 1-100)

binder	binding result
SKA0016 (antibody, V domains shown, Recombinant rabbit monoclonal from B-cell cloning, expressed in FreeStyle 293-F cells; the first screen used B-cell culture supernatant; also called Anti-SG115 Antibody; rabbit Anti Fc-Mutation Antibody) VH: QEQLVESGGGLVQPEGSLTLTCTASGFSFSSSDYMCWVRQAPGKGLEWIACIYIGSNGDTFYASWAKGRFTISKTSSTTVTLQMTSLTAADTATYFCARDSRRADDYGTRLDLWGQGTLVTVSS VL: DIVMTQTPSSVSAAVGGTVTIKCQASQNIYRNLAWYQQKPGQPPKLLIYQASKLESGVPSRFKGSGSGTEFTLTISDLDCDDAASYYCQSISYISSGDTFFWAFGGGTEVVVKG	binds
SKA0046 (antibody, V domains shown, Recombinant rabbit monoclonal from B-cell cloning, expressed in FreeStyle 293-F cells; the first screen used B-cell culture supernatant; also called Anti-SG115 Antibody; rabbit Anti Fc-Mutation Antibody) VH: QEQLVESGGGLVQPEGSLTLTCTASGFSLSSSNYMWWVRQAPGKGLEWIACIHASSSGDTYYANWAKGRFTISKTSSTTVTLQMTSLTAADTATYFCARGGYIYGDGGYNGVAGFSLWGPGTLVTVSS VL: DVVMTQTPASVSEPVGGTVTIKCQASETIGNALAWYQQKPGQRPKLLIYGASNLESGVPSRFKGSGSGTEFTLTISDVQCDDAATYYCQSIYYSSSADTFFFPFGGGTEVVVKG	binds
SKA0009 (antibody, V domains shown, Recombinant rabbit monoclonal from B-cell cloning, expressed in FreeStyle 293-F cells; the first screen used B-cell culture supernatant; also called Anti-SG115 Antibody; rabbit Anti Fc-Mutation Antibody) VH: QSVEESGGRLVTPGTSLTLTCTVSGIDLSSYGMGWVRQAPGMGLEYIGIIYAAGRTYYASWVKGRFIISKTSTTVDLEMTSLTTEDTATYFCARHGSWYAGMDLWGPGTLVTVSS VL: AIEMTQTPSPVSAAVGGTVSINCQASEDIENYFAWYQQKPGQPPKLLIYDASELASGVPSRFSGSGSGTDFTLTISGVQCDDAATYYCQHADYAASSENTFGGGTEVVVKG	binds
